Target or system: T1, mouse TNC rCd4-His-FBG (rat; mouse, UniProt P05540 209-391; Q80YX1 1883-2110, limits assumed)
T1 construct: domain: domains 3 and 4;domain: FBG; Biotinylated in the capture ELISA; also called Mu TNC; mTNC; not shown: 6His tag
T1 sequence (chain (part 1 of 2), looked up): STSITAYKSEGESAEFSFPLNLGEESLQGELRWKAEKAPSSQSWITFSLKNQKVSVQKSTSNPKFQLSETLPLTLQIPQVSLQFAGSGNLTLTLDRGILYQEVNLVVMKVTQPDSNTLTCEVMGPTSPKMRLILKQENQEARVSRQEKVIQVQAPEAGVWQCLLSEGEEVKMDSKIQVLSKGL
T1 sequence (chain (part 2 of 2), looked up): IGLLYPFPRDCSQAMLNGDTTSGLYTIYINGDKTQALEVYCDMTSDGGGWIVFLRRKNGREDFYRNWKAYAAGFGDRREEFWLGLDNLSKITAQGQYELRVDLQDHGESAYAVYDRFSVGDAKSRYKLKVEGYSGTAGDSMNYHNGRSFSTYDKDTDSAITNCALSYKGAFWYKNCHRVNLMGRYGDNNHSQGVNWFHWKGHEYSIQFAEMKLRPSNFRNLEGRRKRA
Assay text: anti-FLAG capture DELFIA ELISA, scFv supernatant, biotinylated mouse rCd4-His-FBG
// reported fold improvement for mouse FBG binding against parent B12 for each item listed
Metric: fold improvement for mouse FBG binding against parent B12

165_13_D4 scFv (scFv, V domains shown, scFv in E. coli supernatant) VH: QVQLVESGGGLVQPGRSLRLSCAASGFTFDDYAMHWVRQAPGKGLEWVSGISGSGGSTYYADSVKGRFTISRDNAKNSLYLQMNSLRAEDTALYYCAKGTVGEGDTFDIWGQGTMVTVSS VL: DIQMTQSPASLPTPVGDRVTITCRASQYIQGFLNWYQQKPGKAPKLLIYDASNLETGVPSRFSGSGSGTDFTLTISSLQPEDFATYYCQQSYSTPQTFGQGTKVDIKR = ≥ 4 fold
165_13_B1 scFv (scFv, V domains shown, scFv in E. coli supernatant (pSANG10, FLAG-tagged)) VH: QVQLVESGGGLVQPGRSLRLSCAASGFTFDDYAMHWVRQAPGKGLEWVSGISGSGGSTYYADSVKGRFTISRDNAKNSLYLQMNSLRAEDTALYYCAKVMSSMEDAFDIWGQGTMVTVSS VL: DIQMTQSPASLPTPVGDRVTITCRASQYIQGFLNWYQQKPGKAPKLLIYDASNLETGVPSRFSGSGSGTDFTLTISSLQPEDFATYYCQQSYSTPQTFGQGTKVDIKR = ≥ 4 fold
165_13_E1 scFv (scFv, V domains shown, scFv in E. coli supernatant) VH: QVQLVESGGGLVQPGRSLRLSCAASGFTFDDYAMHWVRQAPGKGLEWVSGISGSGGSTYYADSVKGRFTISRDNAKNSLYLQMNSLRAEDTALYYCAKDISAVMDVPQTWGQGTMVTVSS VL: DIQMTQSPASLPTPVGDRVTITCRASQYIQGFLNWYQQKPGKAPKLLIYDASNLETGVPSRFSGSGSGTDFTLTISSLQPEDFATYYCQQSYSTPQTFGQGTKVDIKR = ≥ 4 fold
